Let's look at some compounds and their measured IC50.
tested on: S. cerevisiae tim10-1 mutant, luminescence counterscreen; assay: tim10-1 yeast luminescent signal inhibition – luminescence, S. cerevisiae, uHTS hits, counter-screen for tim23-1 inhibitor project, dose response (AID 504657)
Activity calls are given as the source filed them. How the calls were made is not given here.
measurement-kind: IC50

smiles-data: CCOC(=O)c1ccc(NC(=O)CSc2nc(=O)n3cccc(C)c3n2)cc1
result: > 100 µM (inactive)
--
smiles-data: N#C/C(=C\c1ccc(Cl)cc1)C(=O)Nc1cccnc1
result: > 100 µM (inactive)
--
smiles-data: Cc1ccc2[nH]cc(C(=O)CCl)c2c1
result: > 100 µM (inactive)

----------
List of IC50 values.
tested on: S. cerevisiae tim10-1 mutant, luminescence counterscreen; experiment: tim10-1 yeast luminescent signal inhibition – luminescence, S. cerevisiae, uHTS hits, counter-screen for tim23-1 inhibitor project, dose response (AID 504657)
The source made the active and inactive calls. How the calls were made is not given here.

compound: Cc1nc2scc(C)n2c(=O)c1S(=O)(=O)Nc1ccc(OC(F)(F)F)cc1
test-target: S. cerevisiae tim10-1 mutant, luminescence counterscreen
IC50: > 100 µM (inactive)
--
compound: O=C(Nc1nc2ccccc2s1)C1CCCN1S(=O)(=O)c1ccc(Cl)cc1 (stereo unspecified)
test-target: S. cerevisiae tim10-1 mutant, luminescence counterscreen
IC50: > 100 µM (inactive)
--
compound: CC(C)Cn1cnc2c(c(-c3ccccc3)c(-c3ccccc3)n2Cc2ccco2)c1=N
test-target: S. cerevisiae tim10-1 mutant, luminescence counterscreen
IC50: > 100 µM (inactive)
--
compound: C=C1CCc2c([nH]c3ccc(OCC(C)C)cc23)C1=O
test-target: S. cerevisiae tim10-1 mutant, luminescence counterscreen
IC50: > 100 µM (inactive)
--
compound: Cc1cc2cc(CNC(=O)c3ccc(C)c([N+](=O)[O-])c3)ccc2[nH]1
test-target: S. cerevisiae tim10-1 mutant, luminescence counterscreen
IC50: > 100 µM (inactive)
--
compound: O=C(Nc1ccc(-c2cn3c(n2)SCC3)cc1)c1ccco1
test-target: S. cerevisiae tim10-1 mutant, luminescence counterscreen
IC50: > 100 µM (inactive)
--
compound: O=C(Nc1ccc(-c2cn3ccccc3n2)cc1)c1cccs1
test-target: S. cerevisiae tim10-1 mutant, luminescence counterscreen
IC50: > 100 µM (inactive)
--
compound: CC(C)OC(=O)c1cccnc1SCc1cc(=O)n2ccccc2n1
test-target: S. cerevisiae tim10-1 mutant, luminescence counterscreen
IC50: > 100 µM (inactive)
--
compound: O=C(Nc1cc(-c2ccccc2)[nH]n1)c1ccccc1
test-target: S. cerevisiae tim10-1 mutant, luminescence counterscreen
IC50: > 100 µM (inactive)
--
compound: CO/C(N)=C(\C#N)N=Cc1ccccc1Cl
test-target: S. cerevisiae tim10-1 mutant, luminescence counterscreen
IC50: > 100 µM (inactive)
--
compound: CCCCn1c(N)c(N(CCC(C)C)C(=O)c2ccc3c(c2)OCO3)c(=O)[nH]c1=O
test-target: S. cerevisiae tim10-1 mutant, luminescence counterscreen
IC50: > 100 µM (inactive)

Where these numbers come from: PubChem BioAssay AID504657
